Exercise: for every item that follows, state its recorded normalized growth.
test: chemical genetic growth profiling, strain panel (AID 1159580);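 further: tested at 20 µM; growth read once vehicle control cultures reached saturation at 30 °C; 1 = growth at the plate median or of vehicle wells; lower values mean less growth of the strain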; settings: S. cerevisiae deletion strains, growth OD, locus YGR135W, strain pre9, active compounds read low
In all, about 5,500 compounds went through this assay and about 2,000 (36%) were called active. Another 18% or so got no clear call; they are omitted. This is one part of the list.
Answers are plain numbers.

These recorded examples may help you get a feel for the data.
compound: COc1cc(C)c2c(=O)cc(-c3ccccc3)oc2c1
normalized growth: 0.98
//
compound: NCCCNCCSP(=O)(O)O
normalized growth: 0.984
//
compound: CC(=O)N[C@@H](CCC(=O)O)C(=O)O
normalized growth: 1.01
//
compound: Cc1cc(/C=C/c2ccc3cc(N(C)C)ccc3[n+]2C)c(C)n1-c1ccccc1
normalized growth: 0.808
//
compound: NC(N)=NCCN1CCCCCCC1
normalized growth: 1.02

Batch: normalized growth for all items listed.
1. O=c1cccc2n1CC1CC2CN2CCCC[C@@H]12 (stereo partly specified)
2. NC(N)=NCCCCN=C(N)N
3. CN(C)CCC(c1ccccc1)c1ccccn1 (stereo unspecified)
4. COc1c(C)c2c(c(O)c1C/C=C(\C)CCC(=O)O)C(=O)OC2
5. COP(=S)(OC)Oc1ccc([N+](=O)[O-])cc1
6. COc1ccc(-c2cc(=O)c3c(OC)cc(OC)cc3o2)cc1

Return:
[0.982, 0.982, 1.01, 0.874, 0.976, 0.926]

----------
Provide the reported normalized growth of each item.
experiment: chemical genetic growth profiling, strain panel (AID 1159580);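 further: tested at 20 µM; growth read once vehicle control cultures reached saturation at 30 °C; 1 = growth at the plate median or of vehicle wells; lower values mean less growth of the strain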; conditions: S. cerevisiae deletion strains, growth OD, locus YKR026C, strain gcn3, active compounds read low
Screen size: about 5,500 compounds; about 2,000 (36%) were called active. Inconclusive results (about 18%) are left out. The list shows a part of the results. Where a SMILES comes first, the peptide text is derived from it.
Give bare numbers.

compound: O=C(O)CCCCCCCC(=O)O
normalized growth: 1.01

compound: NCCCCC(=O)O
normalized growth: 1.02

# return normalized growth for each item in the list
1. NCC[C@@H](O)C(=O)N[C@@H]1C[C@H](N)[C@@H](O[C@H]2O[C@H](CN)[C@@H](O)[C@H](O)[C@H]2O)[C@H](O)[C@H]1O[C@H]1O[C@H](CO)[C@@H](O)[C@H](N)C1O (stereo not given in full)
2. CC(=O)N[C@@H](CC(=O)O)C(=O)N[C@@H](CCC(=O)O)C(=O)O (Ac-Asp-Glu-OH)

Return:
1: 1.07; 2: 1

Please state normalized growth for every compound in the list that follows.
1. CCN1C[C@@]2(COC)C3[C@@H](OC)[C@H]4[C@@H]1[C@]3(C(OC)C[C@H]2O)C1C[C@@]2(O)[C@H](OC(=O)c3ccccc3)C1[C@]4(OC(C)=O)[C@@H](O)[C@@H]2OC (stereo not given in full)
2. CC1[C@H](C)OC(=O)CC(O)CC(O)CC(O)CCC(O)C(O)C[C@]2(O)CC(O)C(C(=O)O)C(CC(OC3O[C@H](C)[C@@H](O)[C@H](N)[C@@H]3O)/C=C/C=C/C=C/C=C/CC/C=C/C=C/[C@H](C)[C@H]1O)O2 (stereo not given in full)
3. CN(C)C(=O)Oc1ccc[n+](C)c1
4. CC[C@@H]1OC(=O)C[C@@H](O)[C@H](C)[C@@H](O[C@@H]2O[C@H](C)[C@@H](O)[C@H](N(C)C)[C@H]2O)[C@@H](CCN2C[C@H](C)C[C@H](C)C2)C[C@@H](C)C(=O)/C=C/C(C)=C\[C@@H]1CO[C@@H]1O[C@H](C)[C@@H](O)[C@@H](OC)[C@H]1OC
5. CC1(C)N([O-])[N+](=O)C1(C)Br (stereo not given)
6. COc1ccc2c(c1)OCC(Cc1ccc(OC)c(OC)c1)C2=O (stereo not given)

Return:
1: 1.01; 2: 0.0734; 3: 1.01; 4: 0.997; 5: 0.984; 6: 0.976

Take each entry in turn and give its normalized growth.
1. Cc1oncc1C(=O)Nc1ccc(C(F)(F)F)cc1
2. O=C(O)COc1ccc(Cl)cc1Cl
3. CC1OC(O[C@H]2/C=C/C=C/C=C/C=C/C=C/C=C/C=C/[C@H](C)[C@@H](O)[C@@H](C)[C@H](C)OC(=O)CC(O)CC(O)CCC(O)C(O)CC(O)C[C@]3(O)C[C@H](O)C(C(=O)O)C(C2)O3)C(O)[C@H](N)C1O (stereo not given in full)
4. NC(C(=O)O)C(O)C(=O)O (stereo not given)
5. COc1ccc2c(c1)OCC(Cc1ccc(OC)c(O)c1)C2=O (stereo not given)
6. NCCCNCCSP(=O)(O)O

Return:
0.98
0.988
0.0616
0.997
0.966
0.984

// for each compound below, give its normalized growth
1. Clc1ccc(C(c2ccccc2Cl)C(Cl)Cl)cc1 (stereo not given)
2. COC(=O)[C@H](c1ccccc1Cl)N1CCc2sccc2C1
3. FC(F)(F)c1cccc(N2CCNCC2)c1
4. CC(=O)O[C@]1(C)CC[C@@]23CC1C(C)(C)[C@@H]2CC[C@H]3C
5. COc1c(C)c2c(c(O)c1C/C=C(\C)CCC(=O)O)C(=O)OC2

Return:
0.979
1
1
0.974
0.648

These entries and their values trace back to PubChem BioAssay AID1159580.
